System: Lefty1
runDescription: Lefty1 protein binding to printed compounds – biochemical, small-molecule microarray, 635/667 nm fluorescence, primary screen (AID 1139)
measurementSetup: fluorescence 635/667, higher = more signal
Could you please report measured composite z-score for the items listed next?
Response field accepts a number only; no unit should be typed.

Problem: For COc1ccc([Si](C)(C)[C@H]2[C@H](CC(=O)N3CCC[C@H]3CO)O[C@@]3(C(=O)N(Cc4cccc(N5CCC5=O)c4)c4ccccc43)[C@@H]2C)cc1 , what is its reported composite z-score?
Solution: 1.38

Problem: Look at this compound and give its reported composite z-score. C=C(/C(=C/C[C@@H](OC(C)=O)c1ccc(CO)o1)c1cnc2ccccc2c1)C(C)C
Solution: 1.37

Problem: Please report the recorded composite z-score for C=C(C(=O)CC[C@@H](OC(=O)c1cccnc1)c1ccc(CO)o1)C(C)C .
Solution: 1.56

Problem: Query (compound): CN(C)CCCC[C@@H]1NC(=O)[C@@H]2C[C@H](C(=O)NCc3ccc(F)cc3)[C@H](c3cccc(OCCO)c3)N2C1=O ; field requested: composite z-score
Solution: 1.11

Problem: What does the record list as composite z-score for CN1C(=O)C2C(C1=O)C1C=C(c3ccc(CO)cc3)C2C(C2CC2)N1Cc1cc2c(cc1Br)OCO2 (stereo unspecified) ?
Solution: 0.175

Problem: Entry C=C(CCCC)C(=O)CC[C@H](OC(=O)c1ccccc1-c1ccccc1C(=O)O)c1ccc(CO)o1 has what composite z-score?
Solution: 1.57

Problem: What composite z-score value was documented for this compound, C=CCCN(CC#C[C@H]1Oc2ccccc2S(=O)(=O)N2CCC[C@@H]12)S(=O)(=O)c1ccc(C)cc1 ?
Solution: 0.317

Problem: Could you share which composite z-score value was measured for COc1ccc(C#Cc2ccc3c(c2)[C@]2(C(=O)N3)[C@H](C(=O)N3CCN(c4ncccn4)CC3)[C@H]3C(=O)O[C@H](c4ccccc4)[C@H](c4ccccc4)N3[C@@H]2c2ccc(O)cc2)cc1 ?
Solution: 0.884

Problem: Which composite z-score is reported for this compound? CN(C)CCCC[C@@H]1NC(=O)[C@@H]2C[C@H](C(=O)NCCCCCCN)[C@H](c3ccc(O)cc3)N2C1=O
Solution: 0.829

Problem: Could you tell me which composite z-score is on file for C=CCC(OC(C)=O)[C@@H]1[C@@H](N(Cc2ccc(-c3cccc(C(F)(F)F)c3)o2)C(=O)c2ccc(C)cc2)c2cc(OCCCO)ccc2N1C(=O)c1ccc2ccccc2n1 (stereo partly specified) ?
Solution: 0.727

Problem: Record request: composite z-score value, item COc1ccc([Si](C)(C)[C@H]2[C@H](CC(=O)N3Cc4ccccc4C[C@H]3CO)O[C@@]3(C(=O)N(Cc4cccc(I)c4)c4ccccc43)[C@@H]2C)cc1
Solution: 1.64

Problem: Quick one: composite z-score for Oc1ccc2cc[n+](Cc3cccc(OC(F)(F)F)c3)cc2c1 ?
Solution: 1.38

Problem: Quick one: composite z-score of Cc1ccccc1/C=C/C=O ?
Solution: -0.234

Problem: What measured composite z-score goes with CCCNC(=O)[C@@]1(C)c2ccccc2C(=O)N(Cc2cc(F)cc(C(F)(F)F)c2)[C@H]1c1ccc(CO)cc1 ?
Solution: -0.662

Problem: So what's the measured composite z-score for this one? CN(C)CCCC[C@@H]1NC(=O)[C@@H]2C[C@H](C(=O)NCCCCCN)[C@H](c3ccc(O)cc3)N2C1=O
Solution: -0.318

Problem: Reported composite z-score, compound CC(C)[C@H]1COC(=O)N1C(=O)[C@H]1[C@@H](c2ccccc2)N(c2ccccc2)O[C@@H]1C : ____
Solution: 0.593
